# target_of_assay: T1, Human C5 (human, UniProt P01031 19-1676)
# T1 construct: The natural protein has a beta and an alpha chain; also called complement factor 5; complement component 5
# assay_protocol: SPR, mAb captured by anti-hFc, 25C
Known kon of a selection of binders
Reply with just the number (in M⁻¹ s⁻¹).

Consider the worked cases shown below.
{"columns": ["binder", "measured_metric", "reported_measurement"],
 "data": [
  ["H4H12170P (antibody, human IgG4, V domains shown) VH: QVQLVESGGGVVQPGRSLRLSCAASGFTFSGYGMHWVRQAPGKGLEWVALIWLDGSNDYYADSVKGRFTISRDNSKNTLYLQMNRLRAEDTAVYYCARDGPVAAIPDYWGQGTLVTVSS VL: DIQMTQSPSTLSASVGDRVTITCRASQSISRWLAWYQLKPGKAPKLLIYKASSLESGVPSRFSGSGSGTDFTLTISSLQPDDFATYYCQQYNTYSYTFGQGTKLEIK", "kon", 525000],
  ["H4H12171P (antibody, human IgG4, V domains shown) VH: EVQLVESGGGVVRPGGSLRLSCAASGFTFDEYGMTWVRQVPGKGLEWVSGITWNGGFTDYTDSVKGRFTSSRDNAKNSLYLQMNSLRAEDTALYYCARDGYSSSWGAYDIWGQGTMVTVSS VL: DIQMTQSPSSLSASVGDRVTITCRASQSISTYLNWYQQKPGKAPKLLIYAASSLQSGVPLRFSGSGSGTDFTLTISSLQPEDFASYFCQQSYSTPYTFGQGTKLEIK", "kon", 149000],
  ["H4H12167P (antibody, human IgG4, V domains shown) VH: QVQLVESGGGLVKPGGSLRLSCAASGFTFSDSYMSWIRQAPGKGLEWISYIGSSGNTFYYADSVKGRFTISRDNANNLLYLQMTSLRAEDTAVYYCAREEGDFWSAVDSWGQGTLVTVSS VL: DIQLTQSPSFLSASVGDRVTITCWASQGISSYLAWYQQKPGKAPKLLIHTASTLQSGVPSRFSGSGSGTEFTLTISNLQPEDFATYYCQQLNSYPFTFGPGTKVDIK", "kon", "1.09e+06"],
  ["H4H11683N (antibody, human IgG4, V domains shown, also called H2M11683N) VH: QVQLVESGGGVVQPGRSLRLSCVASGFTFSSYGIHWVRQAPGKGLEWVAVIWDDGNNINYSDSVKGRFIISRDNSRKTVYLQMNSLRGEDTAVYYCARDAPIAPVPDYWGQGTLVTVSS VL: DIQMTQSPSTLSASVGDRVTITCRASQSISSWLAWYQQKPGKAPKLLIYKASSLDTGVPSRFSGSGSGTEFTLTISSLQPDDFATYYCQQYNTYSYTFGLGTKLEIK", "kon", 417000]
]}

Now let's try a different one.
Query :: Indicate the recorded kon value for this binder: H4H12166P5 (antibody, human IgG4, V domains shown, human IgG4 Fc with S108P hinge mutation) VH: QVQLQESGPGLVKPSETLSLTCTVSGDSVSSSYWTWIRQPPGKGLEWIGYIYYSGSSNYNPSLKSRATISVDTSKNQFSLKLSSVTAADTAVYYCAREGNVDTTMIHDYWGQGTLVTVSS VL: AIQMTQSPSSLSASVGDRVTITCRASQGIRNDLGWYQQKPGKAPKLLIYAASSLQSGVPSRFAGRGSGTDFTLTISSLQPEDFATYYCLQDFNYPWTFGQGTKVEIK
Result :: 285000
